Hey, just so you know, these numbers are from paper PMC10454150.

target: T1, type 2 ryanodine receptor (RyR2) channel in cardiac SR membranes (pig (endogenous in porcine heart SR), UniProt A0A5G2R1W3 1-4900); assay: FRET or BRET; FRET from D-32-FKBP (loss-of-inhibition variant) on RyR2 in cardiac SR to A-DPc10, series of [A-DPc10]; Ca2+ not stated for this experiment; Hill fit; conditions: one partner purified
T1 construct: type 2 ryanodine receptor (RyR2), pig heart; homotetrameric assembly of 565-kDa protomers; 'intact RyR2 in cardiac SR vesicles'; In every assay RyR2 stood in native SR membranes and was preloaded with a donor-labelled FKBP12.6 (D-FKBP); also called cardiac ryanodine receptor; source: endogenous, SR vesicles isolated by differential ultracentrifugation of porcine ventricular tissue; residual …
Ends that are not written are not given here. QXL520 = non-fluorescent dark acceptor (quencher) probe
measure: pKd
Notebook: values listed as pKd are -log10 of the concentration (mol/L).

Entry QXL520-GFCPDHKAAMVLFLDRVYGIEVQDFLLHLLEVGFLP (also called acceptor-DPc10; source: synthetic peptide (AnaSpec)) [acceptor-labeled DPc10 (A-DPc10), QXL520 at the N-terminus] , pKd reported as 4.88
